assay-procedure: NCI Yeast Anticancer Drug Screen. Data for the mlh1 rad18 strain (AID 175)
condition-label: S. cerevisiae mlh1 rad18 strain growth inhibition; at 50.0 µM; stronger effect = higher value
This is part of a sample that, as a whole, favours compounds with a hit. Of some 79,000 tested, about 15% had one in any assay.

# molecule, value-unit, growth inhibition
data = [
    ("O=C1c2cc(Br)ccc2NC1(c1c[nH]c2ccccc12)c1c[nH]c2ccccc12", "%", 92.8),
    ("CC(=O)Oc1ccc(C)c(C(C)C(Cl)(Cl)Cl)c1 (configuration not stated)", "%", 81.2),
    ("CCOC(=O)C[n+]1c(C)sc2ccccc21", "%", 19.2),
    ("CC(C)CC(N)C(=O)NNc1ccccc1 (configuration not stated)", "%", 98),
    ("O=S(=O)(O)c1ccc(N=Nc2ccc3c(S(=O)(=O)O)cccc3c2O)c2ccccc12", "%", 5),
    ("Cc1ccnc2ccc3ccccc3c12", "%", 33.3),
    ("COc1cccc2c1OC(c1ccc(C#N)cc1)C([N+](=O)[O-])=C2 (configuration not stated)", "%", 83.5),
    ("Clc1ccc(/C=N\\Nc2ccccc2)c(Cl)c1", "%", 66.4),
    ("CS(=O)(=O)N\\N=C1/C=C\\C(=N/NS(C)(=O)=O)CCc2ccc(cc2)CC1", "%", 94.5),
    ("Cc1ccc(S(=O)(=O)Nc2ccccc2SSc2ccccc2NS(=O)(=O)c2ccc(C)cc2)cc1", "%", 60.5),
    ("Nc1cccc2cccnc12", "%", 91),
    ("Cc1ccc(S(=O)(=O)Oc2ccc(C(C)(C)C)cc2Cl)cc1", "%", 14.4),
    ("O=C(c1ccccc1)N(c1ccccc1)c1ccc2ccccc2c1", "%", -1.8),
    ("CC(=O)O[C@@H]1[C@@H](O)[C@H]2O[C@@H]3C=C(C)CC[C@]3(CO)[C@]1(C)[C@@]21CO1", "%", 91.8),
    ("O=c1oc(-c2ccc(Cl)cc2[N+](=O)[O-])nc2ccccc12", "%", 68.5),
    ("Cn1cc(NC(=O)Nc2cc(C(=O)Nc3cc(C(=O)Nc4cc(S(=O)(=O)O)c5cc(S(=O)(=O)O)cc(S(=O)(=O)O)c5c4)n(C)c3)n(C)c2)cc1C(=O)Nc1cc(C(=O)Nc2cc(S(=O)(=O)O)c3cc(S(=O)(=O)O)cc(S(=O)(=O)O)c3c2)n(C)c1", "%", 87),
    ("C=C1N(S(=O)(=O)c2ccc(C)cc2)C(=O)OCC12CCCC2", "%", 3.5),
    ("CC(=O)Oc1ccccc1N(C(C)=O)S(=O)(=O)c1ccc(C)cc1", "%", 98.8),
    ("CC(=O)Oc1ccc(-c2ccc(Br)cc2)cc1", "%", 98),
    ("O=C1c2ccc3ccccc3c2CCC1[n+]1ccc2ccccc2c1 (configuration not stated)", "%", 69.5),
    ("COC(=O)Cc1cn[nH]c1C(=O)OC", "%", 9.75),
    ("CCCC(CCC)NCCOC(=O)C(CC)c1ccccc1 (configuration not stated)", "%", 75),
]
